target: Histone-lysine N-methyltransferase EHMT2 (Homo sapiens, UniProt Q96KQ7); test: Inhibition of human G9a (913 to 1193 residues) using H3 peptide as substrate measured upto 45 mins in presence of SAM cofactor
attribute_measured: IC50

For the molecule C=CC(=O)Nc1cc(NC2CCN(C(C)C)CC2)c2cc(OC)c(OCCCN3CCCC3)cc2n1 , give its reported IC50.
100 nM

###

molecular target: Histone-lysine N-methyltransferase EHMT2 (Homo sapiens); assay: Inhibition of human G9a (913 to 1193 residues) using H3 peptide substrate preincubated for 5 mins followed by SAM addition measured after 10 mins by SAHH-coupled biochemical assay
attribute_measured: pIC50
Numbers only, as −log10 of the molar value.

For the compound CCC(=O)Nc1cc(NC2CCN(C(C)C)CC2)c2cc(OC)c(OCCCN3CCCC3)cc2n1 , give its reported pIC50.
6.68

###

Molecular target: Histone-lysine N-methyltransferase EHMT2 (Homo sapiens)
Sequence (Q96KQ7 whole entry): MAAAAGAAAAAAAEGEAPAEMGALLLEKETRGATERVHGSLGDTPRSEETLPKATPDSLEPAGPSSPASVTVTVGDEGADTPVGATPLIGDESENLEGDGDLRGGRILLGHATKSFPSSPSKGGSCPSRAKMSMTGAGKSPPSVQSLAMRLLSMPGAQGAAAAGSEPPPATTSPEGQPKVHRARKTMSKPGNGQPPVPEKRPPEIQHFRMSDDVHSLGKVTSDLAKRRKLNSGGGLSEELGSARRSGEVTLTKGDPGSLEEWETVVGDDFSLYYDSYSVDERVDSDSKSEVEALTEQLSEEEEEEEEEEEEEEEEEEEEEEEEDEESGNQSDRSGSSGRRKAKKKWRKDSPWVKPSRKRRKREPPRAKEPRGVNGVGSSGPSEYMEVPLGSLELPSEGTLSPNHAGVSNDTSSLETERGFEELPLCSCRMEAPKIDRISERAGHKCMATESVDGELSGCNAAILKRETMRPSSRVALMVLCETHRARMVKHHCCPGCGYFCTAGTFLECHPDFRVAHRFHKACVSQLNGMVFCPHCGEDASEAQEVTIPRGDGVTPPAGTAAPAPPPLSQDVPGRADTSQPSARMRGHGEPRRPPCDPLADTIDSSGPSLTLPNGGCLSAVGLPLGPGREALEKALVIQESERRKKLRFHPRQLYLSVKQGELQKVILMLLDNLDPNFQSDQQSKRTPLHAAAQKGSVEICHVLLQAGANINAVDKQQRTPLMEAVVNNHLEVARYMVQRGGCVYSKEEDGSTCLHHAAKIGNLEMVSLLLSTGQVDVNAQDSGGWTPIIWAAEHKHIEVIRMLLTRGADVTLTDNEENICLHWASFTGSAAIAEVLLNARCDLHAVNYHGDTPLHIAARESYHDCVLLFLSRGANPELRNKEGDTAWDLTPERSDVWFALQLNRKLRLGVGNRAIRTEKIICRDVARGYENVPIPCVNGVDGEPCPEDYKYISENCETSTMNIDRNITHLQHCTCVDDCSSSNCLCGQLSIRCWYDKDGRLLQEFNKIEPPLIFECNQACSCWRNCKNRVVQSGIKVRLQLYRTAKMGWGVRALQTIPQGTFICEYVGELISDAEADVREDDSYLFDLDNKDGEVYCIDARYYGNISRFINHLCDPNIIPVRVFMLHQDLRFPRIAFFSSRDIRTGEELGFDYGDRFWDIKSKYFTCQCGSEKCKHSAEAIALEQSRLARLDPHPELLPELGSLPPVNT
Test: Binding affinity to human G9a (913 to 1193 residues) assessed as dissociation constant by isothermal titration calorimetry method
attribute_measured: pKd
One number for each entry, as −log10 of the molar value.

For the molecule C=CC(=O)Nc1cc(NC2CCN(C(C)C)CC2)c2cc(OC)c(OCCCN3CCCC3)cc2n1 , give its reported pKd.
7.36

###

molecular target: UniProtKB Q9H9B1; assay: Inhibition of human GLP (982 to 1266 residues) using H3 peptide as substrate measured upto 45 mins in presence of SAM cofactor
attribute_measured: IC50
Number first, unit second.

For the compound C=CC(=O)Nc1cc(NC2CCN(C(C)C)CC2)c2cc(OC)c(OCCCN3CCCC3)cc2n1 , give its reported IC50.
140 nM

###

target: Histone-lysine N-methyltransferase EHMT1 (Homo sapiens, UniProt Q9H9B1); assay: Binding affinity to human GLP (982 to 1266 residues) assessed as dissociation constant measured after 1 hr by isothermal titration calorimetry method
Sequence (Q9H9B1 whole entry, the tested form may be a part): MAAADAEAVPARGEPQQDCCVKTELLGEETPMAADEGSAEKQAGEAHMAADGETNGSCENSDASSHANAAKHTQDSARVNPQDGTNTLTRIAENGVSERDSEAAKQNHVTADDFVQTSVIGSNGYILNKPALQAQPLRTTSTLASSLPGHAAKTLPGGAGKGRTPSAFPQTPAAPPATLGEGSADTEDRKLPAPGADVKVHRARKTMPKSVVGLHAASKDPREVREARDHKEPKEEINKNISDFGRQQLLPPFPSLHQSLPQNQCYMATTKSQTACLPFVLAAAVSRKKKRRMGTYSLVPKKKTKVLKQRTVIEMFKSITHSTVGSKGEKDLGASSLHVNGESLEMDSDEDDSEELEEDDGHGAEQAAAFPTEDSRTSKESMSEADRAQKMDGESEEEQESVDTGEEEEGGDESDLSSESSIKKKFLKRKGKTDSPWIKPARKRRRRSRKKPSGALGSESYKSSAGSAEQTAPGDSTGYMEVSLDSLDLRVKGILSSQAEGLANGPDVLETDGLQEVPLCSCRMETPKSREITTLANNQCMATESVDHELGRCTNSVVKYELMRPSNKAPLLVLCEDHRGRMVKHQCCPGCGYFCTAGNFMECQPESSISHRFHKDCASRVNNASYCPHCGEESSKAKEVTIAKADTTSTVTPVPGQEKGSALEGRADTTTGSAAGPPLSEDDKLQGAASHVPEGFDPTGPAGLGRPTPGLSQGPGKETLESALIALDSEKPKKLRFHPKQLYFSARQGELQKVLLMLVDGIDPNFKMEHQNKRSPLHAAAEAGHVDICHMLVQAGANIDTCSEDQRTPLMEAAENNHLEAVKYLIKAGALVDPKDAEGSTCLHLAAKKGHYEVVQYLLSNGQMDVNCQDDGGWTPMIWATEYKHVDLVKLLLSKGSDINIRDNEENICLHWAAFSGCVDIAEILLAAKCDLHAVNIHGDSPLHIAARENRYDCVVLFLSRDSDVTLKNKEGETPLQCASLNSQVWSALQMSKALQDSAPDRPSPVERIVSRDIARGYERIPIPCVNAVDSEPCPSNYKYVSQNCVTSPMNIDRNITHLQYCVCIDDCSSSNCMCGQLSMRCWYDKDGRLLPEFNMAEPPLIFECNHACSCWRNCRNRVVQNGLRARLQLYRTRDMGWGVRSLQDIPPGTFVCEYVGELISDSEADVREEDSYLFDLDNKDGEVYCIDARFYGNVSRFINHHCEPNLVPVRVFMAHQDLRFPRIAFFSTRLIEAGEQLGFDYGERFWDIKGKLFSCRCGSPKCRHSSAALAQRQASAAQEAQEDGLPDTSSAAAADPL
attribute_measured: Kd (µM)
Numbers only, in µM.

For the compound CCC(=O)Nc1cc(NC2CCN(C(C)C)CC2)c2cc(OC)c(OCCCN3CCCC3)cc2n1 , give its reported Kd.
0.016

###

target: UniProtKB Q9H9B1; test: Binding affinity to human GLP (982 to 1266 residues) assessed as dissociation constant by isothermal titration calorimetry method
attribute_measured: pKd
One number for each entry, as −log10 of the molar value.

For the molecule C=CC(=O)Nc1cc(NC2CCN(C(C)C)CC2)c2cc(OC)c(OCCCN3CCCC3)cc2n1 , give its reported pKd.
7.34
